These data points were gathered from paper PMC9897788.

test system: MDA-MB-231/ATCC; assay: NCI 60 cell one-dose screening (SRB); type: cell-based; details: Homo sapiens, Breast Cancer, single dose 10 µM, 48 h, read-out: Percentage of cellular growth inhibition
metric-name: inhibition at 10 µM

Reported inhibition at 10 µM for `Cc1csc(Nc2cccc(Nc3nc(C)cs3)c2)n1` : what is it?
21.2%

Using the record for `S=C(Nc1ccccc1)Nc1cccc(NC(=S)Nc2ccccc2)c1` , report its inhibition at 10 µM.
-0.2%

Would you kindly share the measured inhibition at 10 µM for `c1ccc(/N=c2\scc(-c3ccccc3)n2-c2cccc(-n3c(-c4ccccc4)cs/c3=N\c3ccccc3)c2)cc1` ?
-4.1%

Fill in the blank: the reported inhibition at 10 µM of `Fc1ccc(-c2csc(Nc3cccc(Nc4nc(-c5ccc(F)cc5)cs4)c3)n2)cc1` is ____.
35.4%

# inhibition at 10 µM lookup, item `CCOC(=O)c1sc(Nc2cccc(Nc3nc(C)c(C(=O)OCC)s3)c2)nc1C`
20.8%

Query: inhibition at 10 µM; subject: `Clc1ccc(-c2csc(Nc3cccc(Nc4nc(-c5ccc(Cl)cc5)cs4)c3)n2)cc1`
24.9%

Fill in: inhibition at 10 µM of `c1ccc(-c2csc(Nc3cccc(Nc4nc(-c5ccccc5)cs4)c3)n2)cc1` is ___
52%

Name the recorded inhibition at 10 µM for `CC(=O)c1sc(Nc2cccc(Nc3nc(C)c(C(C)=O)s3)c2)nc1C` .
19.3%

What value of inhibition at 10 µM has been recorded for this entry: `Clc1ccc(-c2cs/c(=N\c3ccccc3)n2-c2cccc(-n3c(-c4ccc(Cl)cc4)cs/c3=N\c3ccccc3)c2)cc1`
-4.5%

Requested field: inhibition at 10 µM. Item: `Fc1ccc(-c2cs/c(=N\c3ccccc3)n2-c2cccc(-n3c(-c4ccc(F)cc4)cs/c3=N\c3ccccc3)c2)cc1`
8.9%

Name the recorded inhibition at 10 µM for `NC(=S)Nc1cccc(NC(N)=S)c1` .
10.3%

May I ask what inhibition at 10 µM has been recorded for `Cc1nc(Nc2cccc(Nc3nc(C)c(N=Nc4ccccc4)s3)c2)sc1N=Nc1ccccc1` ?
35.1%

* * *

system: IGROV1; experiment: NCI 60 cell one-dose screening (SRB); assay type: cell-based; conditions: Homo sapiens, IGROV-1; IGROV1, Ovarian Cancer; single dose 10 µM, 48 h; read-out: Percentage of cellular growth inhibition
metric-name: inhibition at 10 µM
Please answer using the number first and the unit second.

Look at this compound and give its reported inhibition at 10 µM. `Cc1nc(Nc2cccc(Nc3nc(C)c(N=Nc4ccccc4)s3)c2)sc1N=Nc1ccccc1`
52.2%

For `S=C(Nc1ccccc1)Nc1cccc(NC(=S)Nc2ccccc2)c1` , what is its reported inhibition at 10 µM?
-3.3%

I am curious: what inhibition at 10 µM value has been reported for `c1ccc(-c2csc(Nc3cccc(Nc4nc(-c5ccccc5)cs4)c3)n2)cc1` ?
65.9%

Would you kindly share the measured inhibition at 10 µM for `CC(=O)c1sc(Nc2cccc(Nc3nc(C)c(C(C)=O)s3)c2)nc1C` ?
73.6%

* * *

Provide the recorded inhibition at 10 µM for the entries that follow.
test system: NCI-H23; test: NCI 60 cell one-dose screening (SRB); format: cell-based; details: Homo sapiens; NCI-H23, Non-Small Cell Lung Cancer; single dose 10 µM, 48 h; read-out: Percentage of cellular growth inhibition
Respond with a number, then the unit of measure.

Bench note: what inhibition at 10 µM did Cc1csc(Nc2cccc(Nc3nc(C)cs3)c2)n1 [3a] show?
21.2%

Recorded inhibition at 10 µM of c1ccc(-c2csc(Nc3cccc(Nc4nc(-c5ccccc5)cs4)c3)n2)cc1 [6a] , please.
63.2%

Request the reported inhibition at 10 µM associated with CCOC(=O)c1sc(Nc2cccc(Nc3nc(C)c(C(=O)OCC)s3)c2)nc1C [3c]
41.6%
